testTarget: P23H rhodopsin (Mus musculus, UniProt P15409, P23H)
Sequence (P15409 whole entry P23H): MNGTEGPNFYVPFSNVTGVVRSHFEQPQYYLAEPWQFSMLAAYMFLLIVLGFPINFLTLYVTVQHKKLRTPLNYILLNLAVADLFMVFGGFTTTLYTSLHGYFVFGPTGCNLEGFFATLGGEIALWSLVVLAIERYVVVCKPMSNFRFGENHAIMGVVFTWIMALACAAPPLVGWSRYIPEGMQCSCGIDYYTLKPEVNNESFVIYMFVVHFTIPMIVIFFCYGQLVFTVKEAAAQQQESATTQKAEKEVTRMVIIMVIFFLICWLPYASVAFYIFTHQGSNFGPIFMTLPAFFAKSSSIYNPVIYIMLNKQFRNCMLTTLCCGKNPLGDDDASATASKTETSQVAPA
assayRemarks: Image-based
testContext: read-out: Image-based assay NIH3T3 (RHO^P23H/GFP) EC50; 24 h treatment, 8-10 doses
Recorded EC50, one value per entry.
measure: EC50 (nM)

> print(dat)
                                   molecule  measure  experimentalvalue
1               NCC(=O)COP(=O)(O)O [CL-005]     EC50               1300
2  CC(=O)OC(CC(=O)[O-])C[N+](C)(C)C (centres unmarked) [CL-001]     EC50               2100
3  CC(=O)OC(CC(=O)O)C[N+](C)(C)C (centres unmarked) [CL-002]     EC50               1600
4               CCn1cnc2c(N)ncnc21 [CL-007]     EC50               2900
5  O=[N+]([O-])c1ccc(Cl)c([N+](=O)[O-])c1 [CL-006]     EC50               2200
6  O=C(O)C1=CC=CC(O)C1O (centres unmarked) [CL-003]     EC50                600
7  CCC(C)(O)C(O)C(=O)O (centres unmarked) [CL-008]     EC50               1600
8       CC(O)CN (centres unmarked) [CL-004]     EC50                470

These measurements were taken from paper PMC7688577.
